I'd be grateful if you could share measured GI50 for these entries.
- Tested on: DU-145
- protocolDescription: NCI tumour cell line growth inhibition, 48 h
Activity calls are given as the source filed them. Rule as the data show it: active = GI50 up to about 1.1 µM and inactive = higher.

input: Give GI50 for O=C1C(=C2SC(c3ccccc3)(c3ccccc3)c3ccccc32)C(=O)c2ccccc21
output: > 100 µM (inactive)

input: Give GI50 for CCOC(=O)c1ccc(C(=O)/C(C(C)=O)=C2\CCCN2C)n1C
output: > 100 µM (inactive)

input: Give GI50 for COC(=O)c1ccc(C)cc1CC1Cc2c(C)cccc2C1=O (stereo not drawn)
output: 29.4 µM (inactive)

###

I'd be grateful if you could share measured GI50 for these entries.
- Test system: HL-60
- protocolDescription: NCI tumour cell line growth inhibition, 48 h
Active and inactive are the calls of the source. Rule as the data show it: active = GI50 up to about 1.1 µM and inactive = higher.

input: Give GI50 for Cc1c(C(=O)CC(=O)C(=O)Nc2ccccc2C(F)(F)F)[n+]([O-])c2ccccc2[n+]1[O-]
output: 28.2 µM (inactive)

input: Give GI50 for Cc1cc2c(c(S(=O)(=O)c3ccc(Cl)cc3[N+](=O)[O-])c1)NCCC2
output: > 10 µM (inactive)

input: Give GI50 for O=C1CCCC(=O)N1CCc1c[nH]c2ccccc12
output: > 100 µM (inactive)

input: Give GI50 for O=[N+]([O-])C1C2C=CC(C2)[C@H]1c1ccccc1Cl (stereo partly specified)
output: 29.9 µM (inactive)

input: Give GI50 for CN1c2ccccc2N(C)C2C1N(C)c1ccccc1N2C (stereo unspecified)
output: 2.29 µM (inactive)

input: Give GI50 for COP(=O)(OC)c1ccc(NCc2cc(O)ccc2O)cc1
output: 21.4 µM (inactive)

input: Give GI50 for NCCSSCc1ccccc1CSSCCN
output: 8.02 µM (inactive)

input: Give GI50 for CCOC(=O)C1(c2ccccc2)CCC(=O)CC1
output: > 100 µM (inactive)

input: Give GI50 for O=P(Oc1ccccc1)(Oc1ccccc1)Oc1c[nH]c2ccccc12
output: 21.7 µM (inactive)

input: Give GI50 for Cc1ccc([N+](=O)[O-])cc1S(=O)(=O)Nc1ccc(C2=NN(S(=O)(=O)c3cc([N+](=O)[O-])ccc3C)C(c3cccs3)C2)cc1 (stereo unspecified)
output: 32.9 µM (inactive)

input: Give GI50 for c1ccc(CSc2ccccc2CN2CCN(Cc3ccccc3SCc3ccccc3)CCN(Cc3ccccc3SCc3ccccc3)CC2)cc1
output: 1.5 µM (inactive)

###

- System: HOP-62
- protocolDescription: NCI tumour cell line growth inhibition, 48 h
The source made the active and inactive calls. No stated cut-off is given here; in the data, active = GI50 up to about 1.1 µM and inactive = higher.
recordedEndpoint: GI50

input: Give GI50 for CCOC(OCC)N1C(=O)C2(C(OCC)OCC)CC3C(OC(=O)N3N)c3cccc1c32 (centres undefined)
output: > 100 µM (inactive)

input: Give GI50 for CC(C)(C)N1C(C(=O)c2ccccc2)C1c1ccccc1 (centres undefined)
output: > 100 µM (inactive)

input: Give GI50 for CC1(c2ccccc2)CC(c2ccccc2)=NO1 (centres undefined)
output: > 100 µM (inactive)

input: Give GI50 for Cc1ccc(C(=O)O)c(/C=C2\Cc3cc(C)cc(C)c3C2=O)c1
output: > 100 µM (inactive)

input: Give GI50 for CC(=O)Nc1ccc2cc(C#N)c(=O)[nH]c2n1
output: > 100 µM (inactive)

input: Give GI50 for CC1(C)C2CCC(=O)C1CC2 (centres undefined)
output: > 100 µM (inactive)

input: Give GI50 for O=[N+]([O-])c1ccc(-c2nc3cc([N+](=O)[O-])ccc3[nH]2)cc1
output: 31.9 µM (inactive)

input: Give GI50 for C/C(=N\NC(=O)c1ccccc1O)c1c(O)cc(C)oc1=O
output: 98.6 µM (inactive)

input: Give GI50 for COCP1(=S)OC(C)CCN1C(C)C (centres undefined)
output: > 100 µM (inactive)

Sourced from ChEMBL document CHEMBL1201862
